Molecular target: ITK (Homo sapiens, UniProt Q08881)
Construct: purchased Promega Corporation
Sequence (Q08881 1-620): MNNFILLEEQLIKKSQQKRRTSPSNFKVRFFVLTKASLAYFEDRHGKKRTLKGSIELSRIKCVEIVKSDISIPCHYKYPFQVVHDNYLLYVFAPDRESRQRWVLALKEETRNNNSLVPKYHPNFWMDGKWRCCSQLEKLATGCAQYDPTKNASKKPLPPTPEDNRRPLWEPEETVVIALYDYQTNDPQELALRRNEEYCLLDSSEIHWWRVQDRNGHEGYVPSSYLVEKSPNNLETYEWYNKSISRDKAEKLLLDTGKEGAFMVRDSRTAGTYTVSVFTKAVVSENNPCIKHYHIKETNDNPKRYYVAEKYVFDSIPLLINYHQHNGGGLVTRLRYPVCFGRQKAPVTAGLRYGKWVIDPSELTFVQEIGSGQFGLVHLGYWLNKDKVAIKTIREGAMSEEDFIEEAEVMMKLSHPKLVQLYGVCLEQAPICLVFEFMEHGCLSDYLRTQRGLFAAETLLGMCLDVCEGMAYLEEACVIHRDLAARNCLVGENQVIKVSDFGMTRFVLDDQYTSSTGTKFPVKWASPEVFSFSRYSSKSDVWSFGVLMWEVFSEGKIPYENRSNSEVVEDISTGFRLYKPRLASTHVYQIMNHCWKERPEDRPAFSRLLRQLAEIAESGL
Test: Inhibitory activity against ITK (ADP-Glo + ITK Kinase enzyme system kit); selectivity BTK vs. ITK
Assay type: biochemical
Settings: selectivity for the inhibitory activity of BTK vs. ITK, Equation 1
ASSAY ENDPOINT: Selectivity (based on IC50)

C=CC(=O)N1CC2CC1C(n1nc(-c3ccc(Oc4cccc(OC)c4)cc3)c3c(N)ncnc31)C2 (centres unmarked) | >222.2
C=CC(=O)N1CC2CC1C(n1nc(-c3ccc(Oc4cccc(N(C)C)c4)cc3)c3c(N)ncnc31)C2 (centres unmarked) | >147
Nc1ncnc2c1c(-c1ccc(Oc3ccccc3)cc1)nn2C1CC2CC1N(C(=O)/C=C/CN1CCCCC1)C2 (centres unmarked) | >333.3
C=CC(=O)N1CC2CC1C(n1nc(-c3ccc(Oc4cccc(F)c4)cc3)c3c(N)ncnc31)C2 (centres unmarked) | 69.9
C=CC(=O)N1CC2CC1CC2n1nc(-c2ccc(Oc3ccccc3)cc2)c2c(N)ncnc21 (centres unmarked) | >303.3

Input C=CC(=O)N1CC2CC1C(n1nc(-c3ccc(Sc4ccccc4)cc3)c3c(N)ncnc31)C2 (centres unmarked) . Output Selectivity (based on IC50): >303.0

Quick note, Selectivity (based on IC50) for C=CC(=O)N1CC2CC1C(n1nc(-c3ccc(S(=O)(=O)Nc4ccccc4)cc3)c3c(N)ncnc31)C2 (centres unmarked) landed at >454.5

The value of Selectivity (based on IC50) measured for the compound C=CC(=O)N1CC2CC1C(n1nc(-c3ccc(S(=O)(=O)c4ccccc4)cc3)c3c(N)ncnc31)C2 (centres unmarked) turned out to be >250
